Tested On: GSK3β kinase (Homo sapiens (Human))
Sequence (P49841 whole entry): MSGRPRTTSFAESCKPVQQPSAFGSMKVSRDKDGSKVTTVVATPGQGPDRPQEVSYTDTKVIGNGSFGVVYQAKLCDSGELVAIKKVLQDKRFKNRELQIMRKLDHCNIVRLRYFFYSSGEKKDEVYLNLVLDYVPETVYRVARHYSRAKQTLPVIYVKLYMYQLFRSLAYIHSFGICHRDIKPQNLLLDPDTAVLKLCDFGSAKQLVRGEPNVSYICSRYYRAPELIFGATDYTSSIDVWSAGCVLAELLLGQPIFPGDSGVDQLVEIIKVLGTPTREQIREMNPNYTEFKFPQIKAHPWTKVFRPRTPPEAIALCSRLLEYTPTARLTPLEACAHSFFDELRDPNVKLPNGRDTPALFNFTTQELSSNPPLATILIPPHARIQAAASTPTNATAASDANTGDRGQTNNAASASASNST
Protocol Summary: GSK3β kinase assay (Ser/Thr 09 peptide Z-lyte, FRET);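 also: Coumarin/fluorescein emission ratio converted to percent phosphorylation against unphosphorylated (0%) and phosphorylated (100%) controls, 1 h compound incubation at room temperature, 11-point threefold dilutions from 10 µM, run in duplicate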
Condition Set: method text calls the value IC50
pEC50: −log10 of the molar value.
Kind request: treat 7 as inclusive, so pEC50 at 7 or higher is criterion met, anything lower is criterion not met.

[ask] Does Cc1nnc(-c2ccc3cnc(NC(=O)C4CCN(C)CC4)cc3c2)s1 have a reported pEC50 of at least 7?
[reply] criterion met

[ask] Can you handle Cc1nnc(-c2ccc3cnc(NC(=O)N4[C@@H]5CC[C@H]4C[C@H](NCCC(F)(F)F)C5)cc3c2)s1 next?
[reply] criterion not met

[ask] Can you handle CN(C)C1CCN(C(=O)Nc2cc3cc(-c4cnn(C)c4)ccc3cn2)CC1 next?
[reply] criterion not met
